Exercise: state measured pIC50 for each of the molecules provided.
# System: Staphylococcus aureus
# protocol: Compound tested to inhibit staphylococcal AgrC-2
# Type: functional, organism-based
Positions of bridges follow the written chain, without caps; N, C: chain ends. Non-standard residues stand in square brackets, D forms with d. Residues, ends and D or L forms follow the SMILES beside them. Abu = CC[C@H](N)C(=O)O
Reminder that pIC50 is minus the log10 of a molar concentration.

State its pIC50 on Staphylococcus aureus: CC[C@H](C)[C@@H]1NC(=O)[C@@H](Cc2ccccc2)NC(=O)[C@H](C)NC(=O)[C@H](NC(=O)[C@@H](NC(=O)[C@H](CO)NC(=O)CCCOc2ccc(Cc3ccccc3)cc2)[C@@H](C)O)CSC(=O)[C@H](CCSC)NC1=O
7.72

State its pIC50 on Staphylococcus aureus: CC[C@H](C)[C@H]1NC(=O)[C@@H](Cc2ccccc2)NC(=O)[C@@H](C)NC(=O)[C@H](NC(=O)[C@@H](NC(=O)[C@H](CO)NC(=O)CCCOc2ccc(C(=O)c3ccccc3)cc2)[C@@H](C)O)CSC(=O)[C@@H](CCSC)NC1=O
7.74

State its pIC50 on Staphylococcus aureus: CC[C@@H]1NC(=O)[C@@H](NC(=O)[C@@H](NC(=O)[C@H](CO)NC(=O)[C@@H](N)Cc2ccc(O)cc2)[C@@H](C)O)CSC(=O)[C@H](CCSC)NC(=O)[C@H]([C@@H](C)CC)NC(=O)[C@H](Cc2ccccc2)NC1=O (H-YSTC[Abu]FIM; thioester 4-C)
8.55

State its pIC50 on Staphylococcus aureus: CC[C@H](C)[C@@H]1NC(=O)[C@H](Cc2ccccc2)NC(=O)[C@H](C)NC(=O)[C@@H](NC(=O)[C@@H](NC(=O)[C@H](CO)NC(=O)[C@@H](N)Cc2ccc(O)cc2)[C@@H](C)O)CSC(=O)[C@H](CCSC)NC1=O (H-YSTCAFIM; thioester 4-C)
8.40

----------
Exercise: state measured IC50 for each of the compounds provided.
# System: Staphylococcus aureus
# protocol: Compound tested to inhibit staphylococcal AgrC-1
# Format: functional, organism-based
Positions of bridges follow the written chain, without caps; N, C: chain ends. Non-standard residues stand in square brackets, D forms with d. Residues, ends and D or L forms follow the SMILES beside them. Abu = CC[C@H](N)C(=O)O
Just the number please, in nM, no unit attached.

Param item = CC[C@H](C)[C@H]1NC(=O)[C@@H](Cc2ccccc2)NC(=O)[C@@H](C)NC(=O)[C@H](NC(=O)[C@@H](NC(=O)[C@H](CO)NC(=O)CCCOc2ccc(C(=O)c3ccccc3)cc2)[C@@H](C)O)CSC(=O)[C@@H](CCSC)NC1=O ; retrieve measured IC50.
303

Param item = CC[C@H](C)[C@@H]1NC(=O)[C@H](Cc2ccccc2)NC(=O)[C@H](C)NC(=O)[C@@H](NC(=O)[C@@H](NC(=O)[C@H](CO)NC(=O)[C@@H](N)Cc2ccc(O)cc2)[C@@H](C)O)CSC(=O)[C@H](CCSC)NC1=O (H-YSTCAFIM; thioester 4-C) ; retrieve measured IC50.
21

Param item = CC[C@@H]1NC(=O)[C@@H](NC(=O)[C@@H](NC(=O)[C@H](CO)NC(=O)[C@@H](N)Cc2ccc(O)cc2)[C@@H](C)O)CSC(=O)[C@H](CCSC)NC(=O)[C@H]([C@@H](C)CC)NC(=O)[C@H](Cc2ccccc2)NC1=O (H-YSTC[Abu]FIM; thioester 4-C) ; retrieve measured IC50.
137

Param item = CC[C@H](C)[C@@H]1NC(=O)[C@@H](Cc2ccccc2)NC(=O)[C@H](C)NC(=O)[C@H](NC(=O)[C@@H](NC(=O)[C@H](CO)NC(=O)CCCOc2ccc(Cc3ccccc3)cc2)[C@@H](C)O)CSC(=O)[C@H](CCSC)NC1=O ; retrieve measured IC50.
295
